// endpoint IC50 / system UniProt Q9UHL4
// return numeric value only (unit: µM, not printed)

>  <molecule>
NCCC(N)C(=O)N1CCCCC1 (stereo in doubt; 9.9)

>  <assay_target>
UniProt Q9UHL4

>  <result_unit>
µM

>  <IC50>
1.15

$$$$

GET /values?readout=IC50&item= CCC(C)C(N)C(=O)N1CCC1 (centres undefined)
730

Item: NCCC(N)C(=O)N1CCCCC1 (stereo in doubt; 9.7)
0.13

Item: NCCCCC(N)C(=O)N1CCSC1 (centres undefined)
3

Item: N#CC1CCCCN1C(=O)C(N)CCCCN (centres undefined)
1.5

Item: NCCCC[C@H](N)C(=O)N1CCCCC1 (stereo in doubt; 8.4)
1.6

Item: NCCCC[C@@H](N)C(=S)N1CCCCC1
0.49

###

Target: Dipeptidyl peptidase 2 (Homo sapiens)
Assay: Inhibitory activity of compound against Dipeptidylpeptidase II (DPP II)
property_measured: IC50 (nM)
// return numeric value only (unit: nM, not printed)

GET /values?readout=IC50&item= N#C[C@@H]1CCCCN1C(=O)C(N)CCN (stereo partly specified)
38

###

Property: IC50; scope: individual compounds
Target: Dipeptidyl peptidase 4 (Homo sapiens, UniProt P27487)
Sequence (P27487 whole entry): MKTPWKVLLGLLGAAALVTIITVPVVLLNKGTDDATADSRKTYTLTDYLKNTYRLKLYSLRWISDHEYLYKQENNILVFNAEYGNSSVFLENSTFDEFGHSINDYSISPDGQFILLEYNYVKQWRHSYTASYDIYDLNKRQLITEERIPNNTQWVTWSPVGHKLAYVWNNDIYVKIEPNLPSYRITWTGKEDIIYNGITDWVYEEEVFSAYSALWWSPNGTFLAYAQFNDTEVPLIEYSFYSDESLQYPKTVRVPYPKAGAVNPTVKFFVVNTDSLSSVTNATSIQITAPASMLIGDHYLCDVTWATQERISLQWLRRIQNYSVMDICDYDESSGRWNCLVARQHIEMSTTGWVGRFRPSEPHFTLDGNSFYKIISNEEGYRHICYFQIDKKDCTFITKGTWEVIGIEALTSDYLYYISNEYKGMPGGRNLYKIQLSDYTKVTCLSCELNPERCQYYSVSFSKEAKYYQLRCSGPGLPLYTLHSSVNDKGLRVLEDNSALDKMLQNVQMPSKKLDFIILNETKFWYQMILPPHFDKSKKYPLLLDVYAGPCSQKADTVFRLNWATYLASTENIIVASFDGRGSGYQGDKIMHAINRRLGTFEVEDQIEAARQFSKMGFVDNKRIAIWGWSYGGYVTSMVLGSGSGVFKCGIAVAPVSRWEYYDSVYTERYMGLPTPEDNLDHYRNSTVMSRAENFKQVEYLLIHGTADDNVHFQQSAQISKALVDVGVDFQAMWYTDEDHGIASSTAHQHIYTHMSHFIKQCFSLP

>  <compound>
NCCCCC(N)C(=O)N1CCC(OC(=O)c2ccccc2)C1 (stereo unspecified)

>  <assay_target>
Dipeptidyl peptidase 4 (Homo sapiens, UniProt P27487)

>  <IC50>
> 1000 µM

$$$$
>  <compound>
O=C(CNC1CCCC1)NC(c1ccccc1)P(=O)(Oc1ccccc1)Oc1ccccc1 (stereo unspecified)

>  <assay_target>
Dipeptidyl peptidase 4 (Homo sapiens, UniProt P27487)

>  <IC50>
> 125 µM

$$$$
>  <compound>
NCCC(N)C(=O)N1CCCCC1 (stereo in doubt; 9.7)

>  <assay_target>
Dipeptidyl peptidase 4 (Homo sapiens, UniProt P27487)

>  <IC50>
> 1000 µM

$$$$
>  <compound>
NCCCCC(N)C(=O)N1CCCCCC1 (stereo unspecified)

>  <assay_target>
Dipeptidyl peptidase 4 (Homo sapiens, UniProt P27487)

>  <IC50>
> 1000 µM

$$$$
>  <compound>
N#CC1CCCCN1C(=O)C(N)CCCCN (stereo unspecified)

>  <assay_target>
Dipeptidyl peptidase 4 (Homo sapiens, UniProt P27487)

>  <IC50>
51 µM

$$$$

Proceed to the following item.
# query: IC50 | item N#C[C@@H]1CCCCN1C(=O)C(N)CCN (stereo partly specified) | system: Dipeptidyl peptidase 4 (Homo sapiens, UniProt P27487)
151 µM

###

// endpoint IC50 / system Dipeptidyl peptidase 2 (Homo sapiens, UniProt Q9UHL4)
// return numeric value only (unit: µM, not printed)

Worked examples follow.
>  <compound>
CCC(C)C(N)C(=O)N1CC=CC1 (stereo not drawn)

>  <IC50 (µM)>
288

$$$$
>  <compound>
N=C(N)NCCCC(N)C(=O)N1CCCCC1 (stereo not drawn)

>  <IC50 (µM)>
0.63

$$$$

Proceed to the following item.
# query: IC50 | item NCCCCC(N)C(=O)N1CCC(OC(=O)c2ccccc2)C1 (stereo not drawn) | system: Dipeptidyl peptidase 2 (Homo sapiens, UniProt Q9UHL4)
78.1

###

// endpoint log10 IC50 / system Dipeptidyl peptidase 4 (Homo sapiens)
Values are log10 of IC50 in µM.

>  <compound>
CCC(C)C(N)C(=O)N(C)CC (stereo not given)

>  <log10 IC50>
2.22

$$$$
>  <compound>
NCCCC[C@H](N)C(=O)N1CCCCC1 (stereo in doubt; 8.4)

>  <log10 IC50>
2.39

$$$$
>  <compound>
CCC(C)C(N)C(=O)N1CCCCCC1 (stereo not given)

>  <log10 IC50>
2.57

$$$$
>  <compound>
NCCCC[C@H](N)C(=O)N1CCCCC1 (stereo in doubt; 9.5)

>  <log10 IC50>
2.13

$$$$
>  <compound>
CCC(C)C(N)C(=O)N1CC=CCC1 (stereo not given)

>  <log10 IC50>
1.72

$$$$
>  <compound>
NCCCCC(N)C(=O)N1CCSC1 (stereo not given)

>  <log10 IC50>
2.50

$$$$

GET /values?readout=log10 IC50&item= CCC(C)C(N)C(=O)N1CCC(F)C1 (stereo not given)
0.54

Item: NCCCC(N)C(=O)N1CCSC1 (stereo not given)
1.91

Item: NCCC(N)C(=O)N1CCCCC1 (stereo in doubt; 9.9)
2.70

Item: NCCC(N)C(=O)N1CCSC1 (stereo not given)
2.46

Item: CCC(C)C(N)C(=O)N1CCC(O)C1 (stereo not given)
1.97
